Values were extracted from patent US9012481B2.

Known melting point of a selection of compounds
Provide the reading as a plain figure in °C.

Examples with their reported melting point follow.
COMPOUND	VALUE OBSERVED
Cn1c(NC(=O)NCC(=O)O)nc2ccccc21 [KHG26280]	200
O=C([O-])CCCNC(=O)Nc1nc2ccccc2s1.[K+] [KHG26221]	241
CCOC(=O)CCCNC(=O)Nc1nc2ccccc2s1 [KHG26004]	278
CCOC(=O)CNC(=S)Nc1nc2ccc(OC)cc2s1 [KHG26308]	324
O=C([O-])CNC(=O)Nc1nc2c(Cl)cccc2s1.[K+] [KHG26178]	259
CCOC(=O)CNC(=S)Nc1nc2c(Cl)cccc2s1 [KHG26312]	198

Tell me the measured melting point of CCOc1ccc2nc(NC(=O)NCC(=O)O)sc2c1 [KHG26348] , please.
197

Cool, now Cc1ccc(CNC(=O)Nc2nc3ccccc3s2)cc1 [KHG25948]
257

Cool, now CCOC(=O)CNC(=S)Nc1nc2ccc(F)cc2s1 [KHG26310]
160

====

tested on: BV-2 cells; experiment: Cell viability (MTT analysis) of beta-amyloid treated BV-2 cells; format: cell-based; conditions: Mus musculus; compound 50 μM for 24 hours after 50 μM beta-amyloid for 2 hours; BV-2 cells; average of three experiments; read-out: cell viability by MTT analysis
Threshold check on viability at 50 µM: strictly below 50% is y; on or above 50% is n.

Examples from the recorded data:
MOLECULE	CLASS
CCOC(=O)CNC(=O)Nc1nc2ccc(F)cc2s1 [KHG25956]	y
CCOC(=O)CCCNC(=O)Nc1nc2ccccc2n1C [KHG26031]	n
O=C(O)CCNC(=O)Nc1nc2ccccc2s1 [KHG26026]	n
CCCCOC(=O)CNC(=O)Nc1nc2ccccc2s1 [KHG25954]	y
Cc1ccc(CNC(=O)Nc2nc3ccccc3s2)cc1 [KHG25948]	y

Consider the record given below.
Does the reported viability at 50 µM of CCOC(=O)CCNC(=O)Nc1nc2ccccc2s1 [KHG26005] stay below 50%?
y

====

Known viability at 1 µM of a selection of compounds
system: BV-2 cells; assay: Cell viability (MTT analysis) of beta-amyloid treated BV-2 cells; type: cell-based; details: Mus musculus; compound 1000 nM for 24 hours after 50 μM beta-amyloid for 2 hours; BV-2 cells; average of three experiments
Express your answer as a number followed by its unit.

STRUCTURE NOTATION	VALUE OBSERVED
CCOC(=O)CNC(=O)Nc1nc2ccccc2n1C	73%

Tell me the measured viability at 1 µM of `CCOC(=O)CCNC(=O)Nc1nc2ccccc2n1C` , please.
76%

Cool, now `O=C(O)CCCNC(=O)Nc1nc2ccccc2s1`
89%

Cool, now `O=C(O)CCNC(=O)Nc1nc2ccccc2s1`
85%

====

system: BV-2 cells; assay: Cell viability (MTT analysis) of beta-amyloid treated BV-2 cells; format: cell-based; details: Mus musculus; compound 50 μM for 24 hours after 50 μM beta-amyloid for 2 hours; BV-2 cells; average of three experiments; read-out: cell viability by MTT analysis
Threshold check on viability at 50 µM: strictly below 40% is Fulfilled; on or above 40% is Not fulfilled.

Examples from the recorded data:
COMPOUND	CLASS
CCOC(=O)CNC(=O)Nc1nc2ccc(OC)cc2s1 [KHG26019]	Not fulfilled
CCOC(=O)CCCNC(=O)Nc1nc2ccccc2s1 [KHG26004]	Fulfilled
CCOC(=O)CCCNC(=O)Nc1nc2ccccc2[nH]1 [KHG26028]	Fulfilled
CCOC(=O)CCNC(=O)Nc1nc2ccccc2[nH]1 [KHG26027]	Not fulfilled
Cc1ccc(CNC(=O)Nc2nc3ccc(Cl)cc3o2)cc1 [KHG25990]	Fulfilled

Does the reported viability at 50 µM of CCOC(=O)CNC(=O)Nc1nc2ccccc2n1C [KHG26029] stay below 40%?
Not fulfilled

Cool, now O=C(O)CCCNC(=O)Nc1nc2ccccc2s1 [KHG26025]
Not fulfilled

Cool, now CCOC(=O)CNC(=O)Nc1nc2ccc(Cl)cc2o1 [KHG25989]
Not fulfilled

Cool, now CCOC(=O)CCNC(=O)Nc1nc2ccccc2n1C [KHG26030]
Not fulfilled

====

Known melting point of a selection of molecules
Provide the reading as a plain figure in °C.

Examples with their reported melting point follow.
MOLECULE	U	melting point
O=C(O)CNC(=O)Nc1nc2c(Cl)cccc2s1 [KHG26352]	°C	198
CCOC(=O)CNC(=O)Nc1nc2ccc(Cl)cc2s1 [KHG26349]	°C	295
Cc1cc2nc(NC(=S)NCC(=O)O)sc2cc1C [KHG26335]	°C	212
CCOC(=O)CNC(=S)Nc1nc2ccc(Cl)cc2s1 [KHG26311]	°C	184
CCOC(=O)CNC(=S)Nc1nc2ccc(C)cc2s1 [KHG26305]	°C	290.8
CCOC(=O)CNC(=S)Nc1nc2ccccc2n1C [KHG26303]	°C	185
Cn1c(NC(=O)NCCC(=O)O)nc2ccccc21 [KHG26357]	°C	237
CCOC(=O)CNC(=O)Nc1nc2ccc(F)cc2s1 [KHG25956]	°C	291
Cc1cccc2sc(NC(=O)NCC(=O)[O-])nc12.[K+] [KHG26217]	°C	264.4
Cc1cc2nc(NC(=O)NCC(=O)[O-])sc2cc1C.[K+] [KHG26180]	°C	278

Tell me the measured melting point of O=C(O)CCNC(=O)Nc1nc2ccccc2s1 [KHG26026] , please.
243

Cool, now COc1ccc2nc(NC(=O)NCC(=O)O)sc2c1 [KHG26346]
198.3

====

test system: BV-2 cells; test: Cell viability (MTT analysis) of beta-amyloid treated BV-2 cells; type: cell-based; conditions: Mus musculus, BV-2, read-out: cell viability by MTT analysis, compound 500 nM for 24 hours after 50 μM beta-amyloid for 2 hours; BV-2 cells; average of three experiments
Threshold check on viability at 0.5 µM: strictly below 60% is 1 (yes); on or above 60% is 0 (no).

MOLECULE	SUBJECT OF TEST	CLASS
COc1ccc2nc(NC(=O)NCC(=O)O)sc2c1 [KHG26175]	BV-2 cells	0 (no)
O=C([O-])CCCNC(=O)Nc1nc2ccccc2s1.[K+] [KHG26221]	BV-2 cells	1 (yes)
O=C([O-])CCNC(=O)Nc1nc2ccccc2s1.[K+] [KHG26220]	BV-2 cells	1 (yes)

Does the reported viability at 0.5 µM of Cn1c(NC(=O)NCCC(=O)O)nc2ccccc21 [KHG26222] stay below 60%?
1 (yes)

Cool, now Cc1cc2nc(NC(=O)NCC(=O)[O-])sc2cc1C.[K+] [KHG26180]
0 (no)

Cool, now O=C(O)CNC(=O)Nc1nc2ccccc2s1 [KHG26096]
0 (no)

Cool, now Cc1ccc2nc(NC(=O)NCC(=O)[O-])sc2c1.[K+] [KHG26216]
0 (no)

====

Threshold check on melting point: strictly below 200 °C is Yes; on or above 200 °C is No.

Does the reported melting point of CCOC(=O)CNC(=O)Nc1nc2cc(C)c(C)cc2s1 [KHG26353] stay below 200 °C?
No

Cool, now CCOC(=O)CNC(=O)Nc1nc2ccc(OCC)cc2s1 [KHG26347]
No

Cool, now CCOC(=O)CNC(=O)Nc1nc2ccc(OC)cc2s1 [KHG26019]
No

Cool, now CCOC(=O)CNC(=S)Nc1nc2cc(C)c(C)cc2s1 [KHG26307]
No

Cool, now Cn1c(NC(=S)NCC(=O)O)nc2ccccc21 [KHG26334]
Yes

Cool, now CCOC(=O)CNC(=S)Nc1nc2c(C)cccc2s1 [KHG26306]
No

Cool, now Cc1cccc2sc(NC(=S)NCC(=O)O)nc12 [KHG26340]
No

Cool, now O=C(O)CCCNC(=O)Nc1nc2ccccc2s1 [KHG26025]
No

Cool, now CCOC(=O)CCNC(=O)Nc1nc2ccccc2s1 [KHG26005]
No

Cool, now COCCNC(=O)Nc1nc2ccccc2s1 [KHG26344]
No

Cool, now CCOC(=O)CNC(=O)Nc1nc2c(Cl)cccc2s1 [KHG26351]
No

Cool, now Cc1ccc2nc(NC(=O)NCC(=O)[O-])sc2c1.[K+] [KHG26216]
No

====

system: BV-2 cells; assay: Cell viability (MTT analysis) of beta-amyloid treated BV-2 cells; type: cell-based; details: Mus musculus, BV-2, read-out: cell viability by MTT analysis, compound 500 nM for 24 hours after 50 μM beta-amyloid for 2 hours; BV-2 cells; average of three experiments
Known viability at 0.5 µM of a selection of compounds
Provide the reading as a plain figure in %.

STRUCTURE NOTATION	SUBJECT OF TEST	U	viability at 0.5 µM
O=C([O-])CNC(=O)Nc1nc2c(Cl)cccc2s1.[K+]	BV-2 cells	%	59
Cn1c(NC(=O)NCC(=O)[O-])nc2ccccc21.[K+]	BV-2 cells	%	68
Cc1cccc2sc(NC(=O)NCC(=O)[O-])nc12.[K+]	BV-2 cells	%	49

Turning now to a further record.
Tell me the measured viability at 0.5 µM of `O=C([O-])CNC(=O)Nc1nc2ccc(Cl)cc2s1.[K+]` , please.
62
